- tgt: PARG (Homo sapiens)
- Construct: made in house
- assay.overview: Enzymatic inhibitory activity against PARG, HTRF assay
- Type: biochemical
- condition.summary: HTRF; PARylated PARP1 protein as substrate; 60 minutes at room temperature; read-out: IC50 against PARG enzyme
Recorded IC50 split into classes band A (below 10 nM), band B (10 nM to below 20 nM), band C (20 nM or more)

Which category does the recorded IC50 put C[C@H]1CN(c2cc(S(=O)(=O)NC3(C)CC3)cc3c2cc(N=S(C)(C)=O)n3-c2nnc(C(F)F)s2)C[C@H](C)N1 [Compound 082E] in?
band A

---
# bin label for CC(C)n1c(=O)n(-c2nnc(C(F)F)s2)c2cc(S(=O)(=O)NC3(C#N)CC3)cc(N3CCN(C(=O)C(C)(C)O)CC3)c21 [Compound A049]
band B

# repeat for CC(C)C(=O)N1CCN(c2cc(S(=O)(=O)NC3(C#N)CC3)cc3c2n(CC#N)c(=O)n3-c2nnc(C(F)F)s2)CC1 [Compound 074J]
band B

Also check Cn1c(=O)n(-c2nnc(C(F)F)s2)c2cc(S(=O)(=O)NC3(C)CC3)cc(N3CCN(C(=O)C(C)(C)O)CC3)c21 [Compound A030]
band B

Can you check C=CCn1c(=O)n(-c2nnc(C(F)F)s2)c2cc(S(=O)(=O)NC3(C#N)CC3)cc(N3CCN(S(=O)(=O)C(C)C)CC3)c21 [Compound A052] next?
band A

Let us now turn to [2H]C([2H])([2H])C1(NS(=O)(=O)c2cc(N3C[C@H](C)N[C@@H](C)C3)c3c(c2)n(-c2nnc(C(F)F)s2)c2ncnn32)CC1 [Compound 065O]
band A

What do you have for C[C@H]1CN(c2cc(S(=O)(=O)NC3(C)CC3)cn3c(-c4nnc(C(F)F)s4)c(Cl)nc23)C[C@H](C)N1 [Compound 080K] ?
band A

# repeat for COCc1nc2c(N3C[C@H](C)N[C@@H](C)C3)cc(S(=O)(=O)NC3(C)CC3)cc2n1-c1nnc(C(F)F)s1 [Compound 077T]
band C

Then this compound: CC(C)C(=O)N1CCN(c2cc(S(=O)(=O)NC3(C#N)CC3)cc3c2n(C)c(=O)n3-c2nnc(C(F)F)s2)CC1 [Compound A014]
band B

Try CC(C)C(=O)N1CCC(c2cc(S(=O)(=O)NC3(C#N)CC3)cc3c2ncn3-c2nnc(C(F)F)s2)CC1 [Compound 059D] next.
band C

C=CCn1c(=O)n(-c2nnc(C(F)F)s2)c2cc(S(=O)(=O)NC3(C#N)CC3)cc(N3CCN(C(=O)[C@@H]4CCC5(CC5)N4)CC3)c21 [Compound 076F1] , same question.
band C

Then this compound: CC(C)C(=O)N1CCN(c2cc(S(=O)(=O)NC3(C)CC3)cc3c2n(C(C)C)c(=O)n3-c2nnc(C(F)F)s2)CC1 [Compound A019]
band B

* * *

- tgt: PARG (Homo sapiens, UniProt Q86W56)
- Construct: made in house
- Sequence (Q86W56 whole entry): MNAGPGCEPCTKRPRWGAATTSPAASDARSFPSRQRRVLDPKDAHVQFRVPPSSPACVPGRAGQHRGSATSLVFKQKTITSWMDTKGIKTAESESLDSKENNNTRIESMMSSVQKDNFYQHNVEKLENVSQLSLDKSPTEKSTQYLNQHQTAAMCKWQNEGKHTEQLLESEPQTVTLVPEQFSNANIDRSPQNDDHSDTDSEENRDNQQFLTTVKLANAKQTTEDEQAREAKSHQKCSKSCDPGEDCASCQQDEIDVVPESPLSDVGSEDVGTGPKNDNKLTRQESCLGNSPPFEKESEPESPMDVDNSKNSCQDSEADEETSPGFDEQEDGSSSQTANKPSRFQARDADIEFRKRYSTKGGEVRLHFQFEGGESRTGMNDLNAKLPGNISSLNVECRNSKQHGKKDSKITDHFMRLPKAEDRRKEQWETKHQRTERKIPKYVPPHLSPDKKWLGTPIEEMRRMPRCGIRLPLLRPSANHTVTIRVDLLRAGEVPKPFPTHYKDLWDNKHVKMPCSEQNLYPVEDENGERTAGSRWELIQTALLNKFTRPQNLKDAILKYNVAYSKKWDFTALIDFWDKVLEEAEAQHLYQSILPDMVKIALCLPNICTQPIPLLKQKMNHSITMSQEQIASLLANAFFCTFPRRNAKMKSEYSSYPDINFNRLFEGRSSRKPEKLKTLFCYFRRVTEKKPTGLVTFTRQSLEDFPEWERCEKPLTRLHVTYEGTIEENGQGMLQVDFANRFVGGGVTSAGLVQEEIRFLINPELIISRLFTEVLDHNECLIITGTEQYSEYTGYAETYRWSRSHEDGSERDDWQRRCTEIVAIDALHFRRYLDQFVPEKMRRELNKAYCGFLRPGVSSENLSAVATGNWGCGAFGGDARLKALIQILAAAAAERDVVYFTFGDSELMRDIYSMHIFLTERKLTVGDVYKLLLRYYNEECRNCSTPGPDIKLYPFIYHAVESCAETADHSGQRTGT
- assay.overview: Enzymatic inhibitory activity against PARG, HTRF assay
- Format: biochemical
- condition.summary: HTRF; PARylated PARP1 protein as substrate; 60 minutes at room temperature; read-out: IC50 against PARG enzyme
Exercise: for every item that follows, state its recorded IC50.
Numbers only, in nM.

Dear colleague, I am looking for the recorded IC50 of the following compound: Cn1c(=O)n(-c2nnc(C(F)F)s2)c2cc(S(=O)(=O)NC3(C)CC3)cc(N3CCN(C(=O)C(C)(C)F)CC3)c21 [Compound A029]
3

Another: C[C@H]1CN(c2cc(S(=O)(=O)NC3(C)CC3)cc3c2n2nc(C(=O)NC4CC4)nc2n3-c2nnc(C(F)F)s2)C[C@H](C)N1 [Compound 084J]
0.7

Request: C[C@H]1CN(c2cc(S(=O)(=O)NC3(C)CC3)cc3c2nc(C2CC4(CC4)CO2)n3-c2nnc(C(F)F)s2)C[C@H](C)N1 (stereo partly shown) [Compound 079M]
3.8

// next entry
What value of IC50 has been recorded for this entry: [2H]C([2H])([2H])N(C(=O)N1CCN(c2cc(S(=O)(=O)NC3(C#N)CC3)cc3c2n(CC=C)c(=O)n3-c2nnc(C(F)F)s2)CC1)C([2H])([2H])[2H] [Compound A042]
5.1
